Listed next: entries and their corresponding relative viability.
# System: NCI-H23
# PROCEDURE_TEXT: relative viability (nuclei count vs DMSO), 5 days (fraction); higher = more cells survive
# SETUP_CONDITIONS: first compound 0.253 µM

{"COMPOUND": "Oc1nc(-c2ccc(C(F)(F)F)cc2)nc2c1CSCC2 [XAV939] + CS(=O)(=O)CCNCc1ccc(-c2ccc3ncnc(Nc4ccc(OCc5cccc(F)c5)c(Cl)c4)c3c2)o1 [Lapatinib] (partner 2 µM)", "relative viability": 1.01}
{"COMPOUND": "Oc1nc(-c2ccc(C(F)(F)F)cc2)nc2c1CSCC2 [XAV939] + CS(=O)(=O)N1CCN(Cc2cc3nc(-c4cccc5[nH]ncc45)nc(N4CCOCC4)c3s2)CC1 [Pictilisib] (partner 1 µM)", "relative viability": 0.351}
{"COMPOUND": "Oc1nc(-c2ccc(C(F)(F)F)cc2)nc2c1CSCC2 [XAV939] + CCNC(=O)c1noc(-c2cc(C(C)C)c(O)cc2O)c1-c1ccc(CN2CCOCC2)cc1 [Luminespib] (partner 0.01 µM)", "relative viability": 0.214}
{"COMPOUND": "C=C1C(=O)O[C@@H](CCCCCCCC)[C@@H]1C(=O)O [C-75] + C[C@]1(O)C[C@@H](c2nc(-c3ccc4ccc(-c5ccccc5)nc4c3)c3c(N)nccn32)C1 [Linsitinib] (partner 1 µM)", "relative viability": 0.784}
{"COMPOUND": "C=C1C(=O)O[C@@H](CCCCCCCC)[C@@H]1C(=O)O [C-75] + C[C@@H](Oc1cc(-c2cnn(C3CCNCC3)c2)cnc1N)c1c(Cl)ccc(F)c1Cl [Crizotinib] (partner 1 µM)", "relative viability": 0.579}
{"COMPOUND": "C=C1C(=O)O[C@@H](CCCCCCCC)[C@@H]1C(=O)O [C-75] + Nc1nc2[nH]cc(CCc3ccc(C(=O)N[C@@H](CCC(=O)O)C(=O)O)cc3)c2c(=O)[nH]1 [Pemetrexed] (partner 0.2 µM)", "relative viability": 1.03}

* * *

# System: 201T
# PROCEDURE_TEXT: relative viability (nuclei count vs DMSO), 5 days (fraction); higher = more cells survive
# SETUP_CONDITIONS: first compound 0.01 µM
A collection of compounds and their measured relative viability

{"COMPOUND": "NC(=O)Nc1cc(-c2cccc(F)c2)sc1C(=O)N[C@H]1CCCNC1 [AZD7762] + CC(=O)Nc1cccc(-n2c(=O)n(C3CC3)c(=O)c3c(Nc4ccc(I)cc4F)n(C)c(=O)c(C)c32)c1 [Trametinib] (partner 0.02 µM)", "relative viability": 0.718}
{"COMPOUND": "NC(=O)Nc1cc(-c2cccc(F)c2)sc1C(=O)N[C@H]1CCCNC1 [AZD7762] + Cc1nc(NC(=O)N2CCC[C@H]2C(N)=O)sc1-c1ccnc(C(C)(C)C(F)(F)F)c1 [Alpelisib] (partner 2 µM)", "relative viability": 1.01}

* * *

# Tested on: NCI-H2228
# PROCEDURE_TEXT: relative viability (nuclei count vs DMSO), 5 days (fraction); higher = more cells survive
# SETUP_CONDITIONS: first compound 0.1581 µM
Measured relative viability of individual entries

{"COMPOUND": "CC1(C)CCC(c2ccc(Cl)cc2)=C(CN2CCN(c3ccc(C(=O)NS(=O)(=O)c4ccc(N[C@H](CCN5CCOCC5)CSc5ccccc5)c(S(=O)(=O)C(F)(F)F)c4)cc3)CC2)C1 [Navitoclax] + CC(C)C[C@H](NC(=O)[C@H](Cc1ccccc1)NC(=O)c1cnccn1)B(O)O [Bortezomib] (partner 0.002 µM)", "MEASUREMENT_TARGET": "NCI-H2228", "relative viability": 0.804}
{"COMPOUND": "CC1(C)CCC(c2ccc(Cl)cc2)=C(CN2CCN(c3ccc(C(=O)NS(=O)(=O)c4ccc(N[C@H](CCN5CCOCC5)CSc5ccccc5)c(S(=O)(=O)C(F)(F)F)c4)cc3)CC2)C1 [Navitoclax] + O=C(CCCCCCC(=O)Nc1ccccc1)NO [Vorinostat] (partner 1 µM)", "MEASUREMENT_TARGET": "NCI-H2228", "relative viability": 0.397}
{"COMPOUND": "CC1(C)CCC(c2ccc(Cl)cc2)=C(CN2CCN(c3ccc(C(=O)NS(=O)(=O)c4ccc(N[C@H](CCN5CCOCC5)CSc5ccccc5)c(S(=O)(=O)C(F)(F)F)c4)cc3)CC2)C1 [Navitoclax] + COc1cc2c(Oc3ccc(NC(=O)C4(C(=O)Nc5ccc(F)cc5)CC4)cc3F)ccnc2cc1OCCCN1CCOCC1 [Foretinib] (partner 0.25 µM)", "MEASUREMENT_TARGET": "NCI-H2228", "relative viability": 1.01}
{"COMPOUND": "CC1(C)CCC(c2ccc(Cl)cc2)=C(CN2CCN(c3ccc(C(=O)NS(=O)(=O)c4ccc(N[C@H](CCN5CCOCC5)CSc5ccccc5)c(S(=O)(=O)C(F)(F)F)c4)cc3)CC2)C1 [Navitoclax] + CC(=O)c1c(C)c2cnc(Nc3ccc(N4CCNCC4)cn3)nc2n(C2CCCC2)c1=O [Palbociclib] (partner 0.5 µM)", "MEASUREMENT_TARGET": "NCI-H2228", "relative viability": 0.703}

The reported measurements were obtained from the supplement of paper PMC10307832.
